Test system: IGROV-1
EXPERIMENT_NOTES: NCI tumour cell line growth inhibition, 48 h
The source made the active and inactive calls. Cut-off read from the data, not from the text of the source: active = GI50 up to about 1.1 µM and inactive = higher.
Reported GI50 values follow for various molecules

Reference set, count: 2
O=C(N[C@H]1CCC[C@H]1C(=O)Nc1ccc(C(F)(F)F)cc1)OCc1ccccc1 : > 100 µM (inactive)
C=C1c2[nH]c3c([N+](=O)[O-])c(OC)ccc3c2CCN1C(C)=O : > 100 µM (inactive)

## Input Data request, read-out GI50, for "c1ccc2c(c1)c1ccccc1c1n[se]nc21"
## Output 36.1 µM (inactive)

## Input Do the same for "C#CC(C)(C)Oc1cc(O)c2c(=O)c3ccccc3n(C)c2c1" please
## Output > 100 µM (inactive)

## Input Do the same for "N#C/C(=C/c1cccc(Oc2ccccc2)c1)c1ccccc1" please
## Output > 100 µM (inactive)

## Input Do the same for "CC[C@@]1(O)C(=O)OCc2c1cc1n(c2=O)Cc2c-1nc1ccccc1c2/C=N\NC(=O)C[n+]1ccccc1" please
## Output 7.08 µM (inactive)
